# Test system: Plasmodium falciparum
# ASSAY_NOTES: GSK_TCMDC: Inhibition of Plasmodium falciparum 3D7 in whole erythrocytes, using parasite LDH activity as an index of growth.
# Type: functional, organism-based
# CONDITION_NOTES: Plasmodium falciparum, 3D7
In this section we review reported XC50 values for a set of compounds.

- COMPOUND: "COC(=O)c1cc(OC2CCOC2=O)cc2c1OC(C)(C)O2 (stereo not drawn)"
  UNIT: "nM"
  XC50: 806
- COMPOUND: "Cc1cc2nc(-c3ccc(C(=O)NC4CCN(Cc5ccccc5)CC4)cc3)[nH]c2cc1C"
  UNIT: "nM"
  XC50: 743
- COMPOUND: "CC1CCC(NCc2c(O)ccc3ccccc23)CC1 (stereo not drawn)"
  UNIT: "nM"
  XC50: 772

* * *

# Tested on: Plasmodium falciparum
# ASSAY_NOTES: GSK_TCMDC: Inhibition of Plasmodium falciparum 3D7 in whole erythrocytes, using parasite LDH activity as an index of growth.
# Type: functional, organism-based
# CONDITION_NOTES: Plasmodium falciparum, 3D7
MEASUREMENT_KIND: XC50 (nM)

- STRUCTURE_SMILES_STRING: "O=C(Cc1cccc(Cl)c1)Nc1cccc(-c2c[nH]c3nc(Nc4cccc(O)c4)ncc23)c1"
  MEASUREMENT_KIND: "XC50"
  UNIT: "nM"
  RESULT_NUMBER: 731
- STRUCTURE_SMILES_STRING: "CN(C)C(=O)CN1CCN(c2ncnc(N3CCc4c([nH]c5ccccc45)[C@@H]3c3ccc4c(c3)CCO4)n2)CC1"
  MEASUREMENT_KIND: "XC50"
  UNIT: "nM"
  RESULT_NUMBER: 871
- STRUCTURE_SMILES_STRING: "Cc1cc(NC(=O)Nc2ccc3ccn(C)c3c2)c2ccccc2n1"
  MEASUREMENT_KIND: "XC50"
  UNIT: "nM"
  RESULT_NUMBER: 214
- STRUCTURE_SMILES_STRING: "CCCSc1nc2c(c(=O)n1CCc1ccccc1)C1(CCCC1)Cc1ccccc1-2"
  MEASUREMENT_KIND: "XC50"
  UNIT: "nM"
  RESULT_NUMBER: 702

* * *

# Tested on: Plasmodium falciparum
# ASSAY_NOTES: GSK_TCMDC: Inhibition of Plasmodium falciparum 3D7 in whole erythrocytes, using parasite LDH activity as an index of growth.
# Type: functional, organism-based
# CONDITION_NOTES: Plasmodium falciparum, 3D7
Entries whose XC50 is below 800 nM take T; entries at or above 800 nM take F.

- COMPOUND: "O=C(NCCCNc1nc2ccccc2[nH]1)c1cccc(OC(F)(F)F)c1"
  ASSIGNED_CLASS: "T"
- COMPOUND: "CN1CCC(C(=O)N(Cc2ccc(-c3ccc(CNCCc4ccc(S(C)(=O)=O)cc4)cn3)cc2)Cc2ccc3c(c2)OCO3)CC1"
  ASSIGNED_CLASS: "F"
- COMPOUND: "CC(C)c1cc2c(cc1O)C(Cc1ccccc1Cl)N(C)CC2 (centres undefined)"
  ASSIGNED_CLASS: "T"
- COMPOUND: "CC[C@H]1CN2CCc3c([nH]c4ccccc34)[C@@H]2C[C@@H]1CC1c2cc(OC)c(OC)cc2CCN1C (some centres undefined)"
  ASSIGNED_CLASS: "F"
- COMPOUND: "Clc1ccc2c(NCc3ccc4c(c3)OCO4)ccnc2c1"
  ASSIGNED_CLASS: "T"
- COMPOUND: "Cc1c(C(=O)NC2CCC(CN3CCC(c4c[nH]c5ccccc45)CC3)CC2)cnn1-c1c(Cl)cc(Cl)cc1Cl (centres undefined)"
  ASSIGNED_CLASS: "T"

* * *

# Lookup of reported XC50 keyed by entry
# Tested on: Plasmodium falciparum
# ASSAY_NOTES: GSK_TCMDC: Inhibition of Plasmodium falciparum 3D7 in whole erythrocytes, using parasite LDH activity as an index of growth.
# Type: functional, organism-based
# CONDITION_NOTES: Plasmodium falciparum, 3D7
MEASUREMENT_KIND: XC50 (µM)

- STRUCTURE_SMILES_STRING: "COc1ccc2c(N/N=C/c3cccc([N+](=O)[O-])c3)cc(C)nc2c1"
  SYSTEM: "Plasmodium falciparum"
  UNIT: "µM"
  RESULT_NUMBER: 0.557
- STRUCTURE_SMILES_STRING: "O=C(Cn1c(CCc2cccc(F)c2F)cc(=O)c2cccnc21)N(CCN1CCCC1)Cc1ccc(-c2ccc(C(F)(F)F)cc2)cc1"
  SYSTEM: "Plasmodium falciparum"
  UNIT: "µM"
  RESULT_NUMBER: 0.89
- STRUCTURE_SMILES_STRING: "O=C(NC1CCCCC1)N(Cc1ccc(-c2cccc(CNCc3ccc4c(c3)OCO4)c2)cc1)C1CCN(Cc2ccccc2)CC1"
  SYSTEM: "Plasmodium falciparum"
  UNIT: "µM"
  RESULT_NUMBER: 0.688
- STRUCTURE_SMILES_STRING: "COc1cc(NCCCNC(=O)c2cc3c(Cl)cc(Cl)cc3[nH]2)nc2ccccc12"
  SYSTEM: "Plasmodium falciparum"
  UNIT: "µM"
  RESULT_NUMBER: 0.144
- STRUCTURE_SMILES_STRING: "Cc1ccc(F)cc1S(=O)(=O)N1CCCCC(c2ccc(C(F)(F)F)cc2)=N1"
  SYSTEM: "Plasmodium falciparum"
  UNIT: "µM"
  RESULT_NUMBER: 0.937
- STRUCTURE_SMILES_STRING: "COc1ccc(Oc2ccc(Nc3ccnc4ccc(C(F)(F)F)cc34)cc2)cc1OC"
  SYSTEM: "Plasmodium falciparum"
  UNIT: "µM"
  RESULT_NUMBER: 1.06

* * *

# Test system: Plasmodium falciparum
# ASSAY_NOTES: GSK_TCMDC: Inhibition of Plasmodium falciparum 3D7 in whole erythrocytes, using parasite LDH activity as an index of growth.
# Format: functional, organism-based
# CONDITION_NOTES: Plasmodium falciparum, 3D7
Could you please mark class 1 for values of XC50 below 800 nM and class 0 for values at or above it?

- MOLECULE: "O=C(CC1NC(=O)c2ccccc21)Nc1ccc(-c2cccc(-c3nc4cc(C(F)(F)F)ccc4[nH]3)c2)cc1 (stereo not given)"
  ASSIGNED_CLASS: "class 0"
- MOLECULE: "Cc1[nH]c(C)c([N+](=O)[O-])c(=O)c1-c1ccc(Oc2ccccc2)cc1"
  ASSIGNED_CLASS: "class 1"
- MOLECULE: "CC(CN(C)C)C(=O)Nc1cccc(-c2ccc(-c3nc4ccccc4[nH]3)cc2)c1 (stereo not given)"
  ASSIGNED_CLASS: "class 1"
- MOLECULE: "O=C(NC1CCN(Cc2ccccc2)CC1)c1cccc(-c2nc3ccc(Cl)cc3[nH]2)c1"
  ASSIGNED_CLASS: "class 0"
- MOLECULE: "CC(=O)N1c2ccccc2C(C)=CC1(C)C"
  ASSIGNED_CLASS: "class 0"
- MOLECULE: "Cc1ccc(Nc2nccc(N(C)c3ccc4c(c3)nc(NC(=O)Cc3ccc(Cl)c(Cl)c3)n4C)n2)cc1S(N)(=O)=O"
  ASSIGNED_CLASS: "class 0"
- MOLECULE: "CCCCCc1cc(OC(C)=O)c2c(c1)OC(C)(C)C=C2C1=CCN(Cc2ccccc2)CC1"
  ASSIGNED_CLASS: "class 0"
- MOLECULE: "Cc1ccc2[nH]c(C)cc(=NN=CC=Cc3ccccc3)c2c1"
  ASSIGNED_CLASS: "class 0"
- MOLECULE: "Cc1ccc2sc(N3CCN(C(=O)c4ccc([N+](=O)[O-])o4)CC3)nc2c1C"
  ASSIGNED_CLASS: "class 0"
- MOLECULE: "Fc1ccc(-c2csc3ncnc(Cl)c23)cc1"
  ASSIGNED_CLASS: "class 1"
- MOLECULE: "OC(CNCCCc1ccccc1)c1cc(OCc2ccccc2)cc(OCc2ccccc2)c1 (stereo not given)"
  ASSIGNED_CLASS: "class 0"
- MOLECULE: "CC(C)(C)c1ccc(CN2CCC(CNC(=O)c3cc(-c4ccccc4)nc4ccccc34)CC2)cc1"
  ASSIGNED_CLASS: "class 0"
- MOLECULE: "C=Cc1ccc(-c2c(C)[nH]c(C)c(Br)c2=O)cc1"
  ASSIGNED_CLASS: "class 1"
- MOLECULE: "CC(C)C1C(O)=C(c2ccc3ccccc3c2)C(=O)N1Cc1ccsc1 (stereo not given)"
  ASSIGNED_CLASS: "class 0"
- MOLECULE: "O=C(Nc1cccc(-c2cc(-c3c(Cl)cccc3Cl)no2)c1)c1cncc(-c2cccs2)c1"
  ASSIGNED_CLASS: "class 0"
- MOLECULE: "O=C(NCCN1CCCC1)N1CCCN(c2ncnc3cc(-c4ccc(Cl)cc4)sc23)CC1"
  ASSIGNED_CLASS: "class 0"
- MOLECULE: "COc1ccc(CC(=O)Nc2ccc(Nc3nc(C)cc(N4CCCC4)n3)cc2)cc1"
  ASSIGNED_CLASS: "class 0"
- MOLECULE: "Cc1ccc(C)c2sc(N(CCCn3ccnc3)C(=O)c3ccco3)nc12"
  ASSIGNED_CLASS: "class 0"
- MOLECULE: "Cc1cc2nc(-c3ccc(C(=O)NCc4cccc(F)c4)cc3)[nH]c2cc1C"
  ASSIGNED_CLASS: "class 0"
- MOLECULE: "Cc1onc(-c2c(F)cccc2Cl)c1C(=O)Nc1ccccc1I"
  ASSIGNED_CLASS: "class 0"
- MOLECULE: "COCCNCc1nc(-c2ccc3c(Nc4ccc(Cl)cc4F)ccnc3c2)cs1"
  ASSIGNED_CLASS: "class 0"
- MOLECULE: "CC(C)CNCc1ccc(-c2ccc(CN(C(=O)Nc3ccccc3)C3CCN(Cc4ccccc4)CC3)cc2)cc1"
  ASSIGNED_CLASS: "class 1"
- MOLECULE: "CC(C)C[C@@H]1C(=O)N[C@H](C2Cc3ccccc3C2)C(=O)N1[C@@H](C(=O)O)c1ccc(F)cc1F"
  ASSIGNED_CLASS: "class 0"
- MOLECULE: "Nc1nc(N)c2c(ccc3c2ccn3Cc2ccccn2)n1"
  ASSIGNED_CLASS: "class 1"
- MOLECULE: "Cc1cc(=NN=Cc2ccc(Cl)cc2)c2cc(F)ccc2[nH]1"
  ASSIGNED_CLASS: "class 0"
- MOLECULE: "NC1CCN(Cc2ccc(-c3ccc(-c4nc5ccccc5[nH]4)cc3)cc2)C1 (stereo not given)"
  ASSIGNED_CLASS: "class 1"
- MOLECULE: "COc1ccc2nccc(C(=O)NC3CCC(CCN4CCc5cc(C#N)ccc5C4)CC3)c2c1 (stereo not given)"
  ASSIGNED_CLASS: "class 0"
- MOLECULE: "NC1CCN(c2cnn(Cc3cccc(NC(=O)Nc4ccc(-c5ccccc5)cc4)c3)c(=O)c2Cl)CC1"
  ASSIGNED_CLASS: "class 0"
- MOLECULE: "Nc1cc(-c2ccc3c(N)nccc3c2)ccc1Cl"
  ASSIGNED_CLASS: "class 0"
- MOLECULE: "CCN(CC)CCCN(C(=O)Nc1ccc(C#N)cc1)c1nc(-c2ccc(F)cc2)cs1"
  ASSIGNED_CLASS: "class 1"
- MOLECULE: "O=C(CCc1ccco1)NC1CCN(CC2(c3ccc(Cl)cc3)CCC2)CC1"
  ASSIGNED_CLASS: "class 0"
- MOLECULE: "COc1ccc(-c2cc(-c3nc4cc(CN)ccc4[nH]3)c(=O)n(C)c2)cc1OC"
  ASSIGNED_CLASS: "class 0"
